Tested on: SF-268
Assay: NCI tumour cell line growth inhibition, 48 h
Calls of active or inactive are those of the source. Rule as the data show it: active = GI50 up to about 1.1 µM and inactive = higher.
REPORTED ENDPOINT: GI50

Prompt: Which value of GI50 has been reported for `COc1ccc(C2=N/C(=C\c3ccccc3)C(=O)O2)cc1` in the records?
Completion: > 100 µM (inactive)

Prompt: Which value of GI50 has been reported for `CC(=O)O[C@H]1[C@@H](N2CCOCC2)C[C@H]2[C@@H]3CC=C4C[C@@H](N5CCCC5)CC[C@]4(C)[C@H]3CC[C@@]21C` in the records?
Completion: > 100 µM (inactive)

Prompt: Which value of GI50 has been reported for `C1=CC=C2NCCOCC/N=C3/C=CC=CC=C3NCCOCC/N=C\2C=C1` in the records?
Completion: > 100 µM (inactive)

Prompt: Which value of GI50 has been reported for `CN(C)Cc1cc(/N=N/c2ccccc2)ccc1O` in the records?
Completion: 38.8 µM (inactive)

Prompt: Which value of GI50 has been reported for `COc1cc(CCNC2=CC(=O)c3ncccc3C2=O)ccc1O` in the records?
Completion: 8.11 µM (inactive)

====

Tested on: SNB-75
Assay: NCI tumour cell line growth inhibition, 48 h
The source made the active and inactive calls. No stated cut-off is given here; in the data, active = GI50 up to about 1.1 µM and inactive = higher.
REPORTED ENDPOINT: GI50

Prompt: Which value of GI50 has been reported for CNC(C)Cc1ccc(O)cc1 (stereo not given) in the records?
Completion: > 100 µM (inactive)

Prompt: Which value of GI50 has been reported for C=C(C)C(O)C(O)C[C@@H](C)C1CC[C@]23C[C@]12CCC1[C@@]2(C)CCC(OC(C)=O)C(C)(C)C2CC(OC2OC(CO)C(O)C(O)C2O)[C@]13C (stereo not given in full) in the records?
Completion: 19.6 µM (inactive)

Prompt: Which value of GI50 has been reported for `c1ccc(Nc2nnc(-c3ccccc3Nc3ccccc3-c3nnc(Nc4ccccc4)s3)s2)cc1` in the records?
Completion: > 100 µM (inactive)

Prompt: Which value of GI50 has been reported for C1CCN(C2OC3C(COC3N3CCCCC3)OC2OC2CCO[C@@H]2N2CCCCC2)CC1 (stereo not given in full) in the records?
Completion: 9.98 µM (inactive)

Prompt: Which value of GI50 has been reported for CC1CN=C(Nc2ccc(F)c(Cl)c2)S1 (stereo not given) in the records?
Completion: > 100 µM (inactive)

====

Record form. Attribute: GI50. Fill in for each entry.
Test system: UACC-62
Test: NCI tumour cell line growth inhibition, 48 h
The source made the active and inactive calls. Cut-off read from the data, not from the text of the source: active = GI50 up to about 1.1 µM and inactive = higher.

Prompt: Which value of GI50 has been reported for `Nc1ccc(/N=N/c2ccc(/C=C/c3ccc(/N=N/c4ccc(N)c5ccc(S(=O)(=O)O)cc45)cc3S(=O)(=O)O)c(S(=O)(=O)O)c2)c2cc(S(=O)(=O)O)ccc12` in the records?
Completion: > 100 µM (inactive)

Prompt: Which value of GI50 has been reported for `N=C1N(c2ccccc2)C(=S)/C(=N/c2ccccc2)N1c1ccccc1` in the records?
Completion: 5.77 µM (inactive)

Prompt: Which value of GI50 has been reported for `O=S(=O)(O)c1cc(S(=O)(=O)O)c2c(/N=N/c3ccccc3)c(O)ccc2c1` in the records?
Completion: > 100 µM (inactive)

Prompt: Which value of GI50 has been reported for `CCSc1c2cc(OC)ccc2nc2ccc(OC)cc12` in the records?
Completion: 10.9 µM (inactive)

Prompt: Which value of GI50 has been reported for OCC1OC(n2nc(-c3ccccc3)nc2-c2cnccn2)C(O)C(O)C1O (stereo not given) in the records?
Completion: > 100 µM (inactive)

Prompt: Which value of GI50 has been reported for `ClC1=C(Cc2ccccc2)Cc2ccc3c(c21)CCC3` in the records?
Completion: 27.6 µM (inactive)

Prompt: Which value of GI50 has been reported for COc1cccc(N2C(=O)CSC2c2c[nH]c3ccccc23)c1 (stereo not given) in the records?
Completion: > 100 µM (inactive)

Prompt: Which value of GI50 has been reported for `CC(=O)O[C@H]1[C@@H](N2CCOCC2)C[C@H]2[C@@H]3CC=C4C[C@@H](N5CCCC5)CC[C@]4(C)[C@H]3CC[C@@]21C` in the records?
Completion: > 100 µM (inactive)

Prompt: Which value of GI50 has been reported for OC1CN2CCS[C@H]2C(O)C1O (stereo not given in full) in the records?
Completion: > 100 µM (inactive)

Prompt: Which value of GI50 has been reported for COc1ccc(C2=Nc3ccccc3SC(C)C2)cc1OC (stereo not given) in the records?
Completion: 17.8 µM (inactive)
